Assay Method Text: Single rising oral dose (10-150 mg IR) safety, tolerance and pharmacokinetics in healthy male volunteers
Format: in vivo, human
Measurement Context: male, human, plasma, oral, 10 mg, Median; read-out: MRT0-∞
Method: Fifty (50) healthy male adult volunteers, between the ages of 19 and 43 years (mean±SD: 28±6 years) were enrolled in the study and randomized to the […] different treatments. […] The subjects were divided into panels of 10 subjects/dose group. […] The values of Cmax and Tmax were the observed value for each subject. […] The t1/2 (HL_Lambda_z) was calculated as ln 2/λz. […] The AUC values from the last quantifiable time point to infinity was calculated as Ct/λz. […] Oral clearance was calculated as Dose/AUC0-∞. […]
Assay Endpoint: MRT inf (h)
Reply numerically in h, unit not repeated.

Challenge: Look up and report measured MRT inf for this entry: Clc1ccc([C@]23CNC[C@H]2C3)cc1Cl
Response given: 5.35

----------
Assay Method Text: 13-week dog toxicity and toxicokinetic study
Format: in vivo
Measurement Context: female, beagle, dog, in vivo, po, 2 mg/kg/day, females, 2 mg/kg/day, Day 86
Assay Endpoint: Tmax (h)
Give just the number in h; leave the unit off.

Challenge: Quickly give me recorded Tmax for Clc1ccc([C@]23CNC[C@H]2C3)cc1Cl
Response given: 1

----------
Assay Method Text: Single rising oral dose (10-150 mg IR) safety, tolerance and pharmacokinetics in healthy male volunteers
Type: in vivo, human
Measurement Context: male, human, plasma, oral, 100 mg, Median; read-out: t1/2 (converted)
Assay Endpoint: half-life
Kindly report the value followed by its unit.

Challenge: Give recorded half-life. Clc1ccc([C@]23CNC[C@H]2C3)cc1Cl
Response given: 4.22 h

----------
Assay Method Text: Single dose 300 mg / 450 mg pharmacokinetic, safety and tolerability study in healthy male and female subjects
Measurement Context: male, human, plasma, po, 450 mg
Assay Endpoint: concentration at 24 h (ng/mL)
Write it as a number; the unit ng/mL goes unstated.

Challenge: Please look at this molecule and report its concentration at 24 h: O=C1NCC2(c3ccc(Cl)c(Cl)c3)CC12 (stereo not shown)
Response given: 1450

----------
Assay Method Text: 2-week dog toxicity and toxicokinetic study
Type: in vivo
Measurement Context: male, beagle, in vivo, po, 20 mg/kg/day, males, 20 mg/kg/day, Day 0
Assay Endpoint: Cmax (ng/mL)
// return numeric value only (unit: ng/mL, not printed)

Challenge: Output measured Cmax for this item: Clc1ccc([C@]23CNC[C@H]2C3)cc1Cl
Response given: 11600

----------
Assay Method Text: 13-week mouse toxicity and toxicokinetic study
Measurement Context: female, Crl:CD-1(ICR) BR, in vivo, po, 100 mg/kg/day, AUC0-24
Assay Endpoint: AUC(0-t)
Answer with the number, then the unit.

Challenge: // Input: Clc1ccc([C@]23CNC[C@H]2C3)cc1Cl . Output its AUC(0-t) only.
Response given: 20000 ng·h/mL

----------
Assay Method Text: Brain and plasma levels of amitifadine and lactam metabolite EB-10101 in rat
Format: in vivo
Measurement Context: male, Sprague-Dawley, rat, brain and plasma; 10 mg/kg oral, 0.5 h; read-out: brain to plasma ratio
Assay Endpoint: Kp at 0.5 h
Lab note: jot the number down without any unit.

Challenge: Answer with the recorded Kp at 0.5 h of O=C1NCC2(c3ccc(Cl)c(Cl)c3)CC12 (stereo not shown) [EB-10101] only.
Response given: 1.1
